This collection of values is drawn from patent US20260373248A1.

Measured SC Flux by item
Test system: luciferase
Test: Luciferase expression after local (intramuscular or subcutaneous) administration of mRNA
Format: in vivo
Conditions: subcutaneous, mRNA 0.01 mpk, 6 hours
Non-standard residues stand in square brackets, D forms with d. Residues, ends and D or L forms follow the SMILES beside them. *: point of attachment. Gly(N-(3-decanoyloxypropyl)) = CCCCCCCCCC(=O)OCCCNCC(=O)O; N(3-lauroyloxypropyl)Gly = CCCCCCCCCCCC(=O)OCCCNCC(=O)O; Gly(N-3-morpholinopropyl) = O=C(O)CNCCCN1CCOCC1; N(2-ethylhexyl)Gly = CCCCC(CC)CNCC(=O)O; N(CH(CH2OH)2)Gly = O=C(O)CNC(CO)CO; NDecylGly = CCCCCCCCCCNCC(=O)O; For = O=C*
value-type: SC Flux (p/s)

compound | value-type | experimental-result
CCCCCCCCCCCC(=O)OCCCN(CC(=O)N(CC(=O)N(CC(=O)N(CCCOC(=O)CCCCCCCCCCC)CC(=O)N(CC(N)=O)CC(CC)CCCC)CC(CC)CCCC)CC(CC)CCCC)C(=O)CN(CC(CC)CCCC)C(=O)CNC(CO)CO (centres unmarked) [Compound 6] (H-[N(CH(CH2OH)2)Gly][N(2-ethylhexyl)Gly][N(3-lauroyloxypropyl)Gly][N(2-ethylhexyl)Gly][N(2-ethylhexyl)Gly][N(3-lauroyloxypropyl)Gly][N(2-ethylhexyl)Gly]-NH2) | SC Flux | 1.14E+08
CCCCCCCCCC(=O)OCCCN(CC(=O)N(CC(=O)N(CC(=O)N(CCCOC(=O)CCCCCCCCC)CC(=O)N(CC(N)=O)CC(CC)CCCC)CC(CC)CCCC)CC(CC)CCCC)C(=O)CN(CC(CC)CCCC)C(=O)CN(C=O)CCCN1CCOCC1 (centres unmarked) [Compound 106] (For-[Gly(N-3-morpholinopropyl)][N(2-ethylhexyl)Gly][Gly(N-(3-decanoyloxypropyl))][N(2-ethylhexyl)Gly][N(2-ethylhexyl)Gly][Gly(N-(3-decanoyloxypropyl))][N(2-ethylhexyl)Gly]-NH2) | SC Flux | 1.70E+08
CCCCCCCC(=O)OCCCN(CC(=O)N(CCc1ccccc1)CC(=O)N(CC(=O)N(CCCN1CCOCC1)CC(=O)N(CC(=O)N(CCc1ccccc1)CC(=O)N(CCCOC(=O)CCCCCCC)CC(=O)N(CC(N)=O)CC(CC)CCCC)CC(CC)CCCC)CC(CC)CCCC)C(=O)CN(C=O)CC(CC)CCCC (centres unmarked) | SC Flux | 4.34E+07
CCCCCCCCCCCC(=O)OCCCN(C=O)CC(=O)N(CCCOC(=O)CCCCCCCCCCC)CC(=O)N(CC(=O)N(CCCN1CCOCC1)CC(=O)N(CCCOC(=O)CCCCCCCCCCC)CC(=O)N(CCCOC(=O)CCCCCCCCCCC)CC(=O)N(CC(N)=O)CC(CC)CCCC)CC(CC)CCCC (centres unmarked) [Compound 81] (For-[N(3-lauroyloxypropyl)Gly][N(3-lauroyloxypropyl)Gly][N(2-ethylhexyl)Gly][Gly(N-3-morpholinopropyl)][N(3-lauroyloxypropyl)Gly][N(3-lauroyloxypropyl)Gly][N(2-ethylhexyl)Gly]-NH2) | SC Flux | 6.97E+07
CCCCCCCCCCCC(=O)OCCCN(CC(N)=O)C(=O)CN(CC(CC)CCCC)C(=O)CN(CCCCCCCCCC)C(=O)CN(CC(CC)CCCC)C(=O)CN(CCCOC(=O)CCCCCCCCCCC)C(=O)CN(CC(CC)CCCC)C(=O)CNC(CO)CO (centres unmarked) [Compound 59] (H-[N(CH(CH2OH)2)Gly][N(2-ethylhexyl)Gly][N(3-lauroyloxypropyl)Gly][N(2-ethylhexyl)Gly][NDecylGly][N(2-ethylhexyl)Gly][N(3-lauroyloxypropyl)Gly]-NH2) | SC Flux | 8.71E+08
